src = paper PMC12480555

# Measurement Description: MTT cytotoxicity assay
# Type: cell-based
# Stated Conditions: human, HFF cells
Quantity Name: viability at 24 h, 0.5 mg/mL (%)
Just the number in %, nothing appended.

O=c1[nH]cc(F)c(=O)[nH]1 [Free 5FU, 5-Fluorouracil] yielded viability at 24 h, 0.5 mg/mL of 87.9

---

# Measurement Description: MTT cytotoxicity assay
# Type: cell-based
# Stated Conditions: human, HFF cells
Quantity Name: viability at 48 h, 0.5 mg/mL (%)
Just the number in %, nothing appended.

O=c1[nH]cc(F)c(=O)[nH]1 [Free 5FU, 5-Fluorouracil] yielded viability at 48 h, 0.5 mg/mL of 94.1

---

# Measurement Description: MTT cytotoxicity assay
# Format: cell-based
# Stated Conditions: human, HFF cells
Quantity Name: viability at 24 h, 0.2 mg/mL
Please don't drop the unit; write it after the number.

O=c1[nH]cc(F)c(=O)[nH]1 [Free 5FU, 5-Fluorouracil] yielded viability at 24 h, 0.2 mg/mL of 99.5%

---

# Measurement Description: MTT cytotoxicity assay
# Assay type: cell-based
# Stated Conditions: human, HFF cells
Quantity Name: viability at 48 h, 2 mg/mL
Please don't drop the unit; write it after the number.

O=c1[nH]cc(F)c(=O)[nH]1 [Free 5FU, 5-Fluorouracil] yielded viability at 48 h, 2 mg/mL of 65.1%

---

# Measurement Description: MTT cytotoxicity assay
# Type: cell-based
# Stated Conditions: human, HFF cells
Quantity Name: viability at 48 h, 0.2 mg/mL
Please don't drop the unit; write it after the number.

O=c1[nH]cc(F)c(=O)[nH]1 [Free 5FU, 5-Fluorouracil] yielded viability at 48 h, 0.2 mg/mL of 104%

---

# Measurement Description: MTT cytotoxicity assay
# Format: cell-based
# Stated Conditions: human, HFF cells
Quantity Name: viability at 48 h, 1.5 mg/mL (%)
Just the number in %, nothing appended.

O=c1[nH]cc(F)c(=O)[nH]1 [Free 5FU, 5-Fluorouracil] yielded viability at 48 h, 1.5 mg/mL of 74.7

---

# Measurement Description: MTT cytotoxicity assay
# Format: cell-based
# Stated Conditions: human, HFF cells
Quantity Name: viability at 48 h, 1 mg/mL (%)
Just the number in %, nothing appended.

O=c1[nH]cc(F)c(=O)[nH]1 [Free 5FU, 5-Fluorouracil] yielded viability at 48 h, 1 mg/mL of 79.4

---

# Measurement Description: MTT cytotoxicity assay
# Type: cell-based
# Stated Conditions: human, HFF cells
Quantity Name: viability at 24 h, 1 mg/mL (%)
Just the number in %, nothing appended.

O=c1[nH]cc(F)c(=O)[nH]1 [Free 5FU, 5-Fluorouracil] yielded viability at 24 h, 1 mg/mL of 85.9
